meta.source: patent US20050026839A1

Molecular target: T1, wild-type human PTH/PTHrP receptor (hP1R-WT) (human, UniProt Q03431 27-593)
T1 sequence (looked up): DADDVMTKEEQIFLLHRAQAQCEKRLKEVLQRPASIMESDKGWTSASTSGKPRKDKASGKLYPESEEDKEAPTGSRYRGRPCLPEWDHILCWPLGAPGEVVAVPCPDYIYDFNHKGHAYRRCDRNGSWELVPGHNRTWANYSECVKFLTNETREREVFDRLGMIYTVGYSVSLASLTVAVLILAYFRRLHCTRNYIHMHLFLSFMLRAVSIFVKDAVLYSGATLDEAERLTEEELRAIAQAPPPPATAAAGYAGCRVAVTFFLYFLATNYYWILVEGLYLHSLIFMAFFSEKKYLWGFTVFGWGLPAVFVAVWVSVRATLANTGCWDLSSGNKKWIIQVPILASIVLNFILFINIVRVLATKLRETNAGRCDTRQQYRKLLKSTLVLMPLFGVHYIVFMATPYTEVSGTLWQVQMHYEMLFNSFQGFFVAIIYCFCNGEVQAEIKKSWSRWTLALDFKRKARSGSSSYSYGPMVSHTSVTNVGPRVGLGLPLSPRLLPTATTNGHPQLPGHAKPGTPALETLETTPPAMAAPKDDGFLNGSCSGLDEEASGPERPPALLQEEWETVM
Test: cell-based or functional assay
Square brackets hold non-standard residues; d marks the D form. Ends that are not written are not given here. hArg = N=C(N)NCCCC[C@H](N)C(=O)O; Aib = CC(C)(N)C(=O)O
parameter: cAMP EMax(obs.)

binder: [Aib]V[Aib]EIQLMH-NH2 (N-terminus assumed; SMILES CC[C@H](C)[C@H](NC(=O)[C@H](CCC(=O)O)NC(=O)C(C)(C)NC(=O)[C@@H](NC(=O)C(C)(C)N)C(C)C)C(=O)N[C@@H](CCC(N)=O)C(=O)N[C@@H](CC(C)C)C(=O)N[C@@H](CCSC)C(=O)N[C@@H](Cc1c[nH]cn1)C(N)=O) [[Aib^1,3]PTH(1-9)]
parameter: cAMP EMax(obs.)
reported.measurement: 10 pmole/well
//
binder: AVAEIQL[Aib]HQ[hArg]AKW-NH2 (N-terminus assumed; SMILES CC[C@H](C)[C@H](NC(=O)[C@H](CCC(=O)O)NC(=O)[C@H](C)NC(=O)[C@@H](NC(=O)[C@H](C)N)C(C)C)C(=O)N[C@@H](CCC(N)=O)C(=O)N[C@@H](CC(C)C)C(=O)NC(C)(C)C(=O)N[C@@H](Cc1c[nH]cn1)C(=O)N[C@@H](CCC(N)=O)C(=O)N[C@@H](CCCCNC(=N)N)C(=O)N[C@@H](C)C(=O)N[C@@H](CCCCN)C(=O)N[C@@H](Cc1c[nH]c2ccccc12)C(N)=O, Aib scan of [M]PTH(1-14); also called 629 Aib-8) [[Aib^8,M]PTH(1-14)]
parameter: cAMP EMax(obs.)
reported.measurement: 34 pmole/well
